Known total protein half-life in vivo of a selection of sequences
# PROCEDURE TEXT: total protein half-life in vivo (active degradation + dilution); higher = more stable protein
# ASSAY SETUP: wild type E. coli NCM3722; growth: N-lim chemostat; doubling time 6 h
Provide a numeric answer, followed by its unit.

sequence_chain=MIKKIFALPVIEQISPVLSRRKLDELDLIVVDHPQVKASFALQGAHLLSWKPAGEEEVLWLSNNTPFKNGVAIRGGVPVCWPWFGPAAQQGLPAHGFARNLPWTLKSHHEDADGVALTFELTQSEETKKFWPHDFTLLAHFRVGKTCEIDLESHGEFETTSALHTYFNVGDIAKVSVSGLGDRFIDKVNDAKENVLTDGIQTFPDRTDRVYLNPQDCSVINDEALNRIIAVGHQHHLNVVGWNPGPALSISMGDMPDDGYKTFVCVETAYASETQKVTKEKPAHLAQSIRVAKR measurement_label="total protein half-life in vivo" recorded_measurement="5.42 h"
sequence_chain="MAMYQNMLVVIDPNQDDQPALRRAVYLHQRIGGKIKAFLPIYDFSYEMTTLLSPDERTAMRQGVISQRTAWIHEQAKYYLNAGVPIEIKVVWHNRPFEAIIQEVISGGHDLVLKMAHQHDRLEAVIFTPTDWHLLRKCPSPVWMVKDQPWPEGGKALVAVNLASEEPYHNALNEKLVKETIELAEQVNHTEVHLVGAYPVTPINIAIELPEFDPSVYNDAIRGQHLLAMKALRQKFGINENMTHVEKGLPEEVIPDLAEHLQAGIVVLGTVGRTGISAAFLGNTAEQVIDHLRCDLLVIKPDQYQTPVELDDEEDD [P0AAC0]" measurement_label="total protein half-life in vivo" recorded_measurement="5.01 h"
sequence_chain="MDTELLKTFLEVSRTRHFGRAAESLYLTQSAVSFRIRQLENQLGVNLFTRHRNNIRLTAAGEKLLPYAETLMSTWQAARKEVAHTSRHNEFSIGASASLWECMLNQWLGRLYQNQDAHTGLQFEARIAQRQSLVKQLHERQLDLLITTEAPKMDEFSSQLLGYFTLALYTSAPSKLKGDLNYLRLEWGPDFQQHEAGLIGADEVPILTTSSAELAQQQIAMLNGCTWLPVSWARKKGGLHTVVDSTTLSRPLYAIWLQNSDKNALIRDLLKINVLDEVY [P0A8R9]" measurement_label="total protein half-life in vivo" recorded_measurement="4.72 h"
sequence_chain=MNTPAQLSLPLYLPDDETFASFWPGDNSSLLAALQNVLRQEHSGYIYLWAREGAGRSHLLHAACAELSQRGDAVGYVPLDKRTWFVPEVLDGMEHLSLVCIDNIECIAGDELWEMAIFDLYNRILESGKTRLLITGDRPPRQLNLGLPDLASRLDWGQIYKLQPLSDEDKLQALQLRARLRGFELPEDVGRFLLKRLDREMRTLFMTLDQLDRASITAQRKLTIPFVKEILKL measurement_label="total protein half-life in vivo" recorded_measurement="4.4 h"

Lookup: Indicate its recorded total protein half-life in vivo; the sequence in question is MKYKHLILSLSLIMLGPLAHAEEIGSVDTVFKMIGPDHKIVVEAFDDPDVKNVTCYVSRAKTGGIKGGLGLAEDTSDAAISCQQVGPIELSDRIKNGKAQGEVVFKKRTSLVFKSLQVVRFYDAKRNALAYLAYSDKVVEGSPKNAISAVPVMPWRQ [P0AE91]
Found: 6.39 h

Lookup: Input MSDKFGEGRDPYLYPGLDIMRNRLNIRQQQRLEQAAYEMTALRAATIELGPLVRGLPHLRTIHRQLYQDIFDWAGQLREVDIYQGDTPFCHFAYIEKEGNALMQDLEEEGYLVGLEKAKFVERLAHYYCEINVLHPFRVGSGLAQRIFFEQLAIHAGYQLSWQGIEKEAWNQANQSGAMGDLTALQMIFSKVVSEAGESE , output reported total protein half-life in vivo.
Found: 4.39 h

Lookup: Provide total protein half-life in vivo value for the following sequence: MNALTAVQNNAVDSGQDYSGFTLTPSAQSPRLLELTFTEQTTKQFLEQVAEWPVQALEYKSFLRFRVAKILDDLCANQLQPLLLKTLLNRAEGALLINAVGVDDVKQADEMVKLATAVAHLIGRSNFDAMSGQYYARFVVKNVDNSDSYLRQPHRVMELHNDGTYVEEITDYVLMMKIDEQNMQGGNSLLLHLDDWEHLDNYFRHPLARRPMRFAAPPSKNVSKDVFHPVFDVDQQGRPVMRYIDQFVQPKDFEEGVWLSELSDAIETSKGILSVPVPVGKFLLINNLFWLHGRDRFTPHPDLRRELMRQRGYFAYASNHYQTHQ
Found: 1.3 h

Lookup: Output total protein half-life in vivo of MPSLSKEAALVHEALVARGLETPLRPPVHEMDNETRKSLIAGHMTEIMQLLNLDLADDSLMETPHRIAKMYVDEIFSGLDYANFPKITLIENKMKVDEMVTVRDITLTSTCEHHFVTIDGKATVAYIPKDSVIGLSKINRIVQFFAQRPQVQERLTQQILIALQTLLGTNNVAVSIDAVHYCVKARGIRDATSATTTTSLGGLFKSSQNTRHEFLRAVRHHN [P0A6T5]
Found: 1.89 h

Lookup: In one line, give reported total protein half-life in vivo of the entry MTLKELLVGFGTQVRSIWMIGLHAFAKRETRMYPEEPVYLPPRYRGRIVLTRDPDGEERCVACNLCAVACPVGCISLQKAETKDGRWYPEFFRINFSRCIFCGLCEEACPTTAIQLTPDFEMGEYKRQDLVYEKEDLLISGPGKYPEYNFYRMAGMAIDGKDKGEAENEAKPIDVKSLLP [P0AFD6] .
Found: 5.99 h

Lookup: Report total protein half-life in vivo, nothing else, for this sequence: MRQTKTGILLANLGTPDAPTPEAVKRYLKQFLSDRRVVDTSRLLWWPLLRGVILPLRSPRVAKLYASVWMEGGSPLMVYSRQQQQALAQRLPEMPVALGMSYGSPSLESAVDELLAEHVDHIVVLPLYPQFSCSTVGAVWDELARILARKRSIPGISFIRDYADNHDYINALANSVRASFAKHGEPDLLLLSYHGIPQRYADEGDDYPQRCRTTTRELASALGMAPEKVMMTFQSRFGREPWLMPYTDETLKMLGEKGVGHIQVMCPGFAADCLETLEEIAEQNREVFLGAGGKKYEYIPALNATPEHIEMMANLVAAYR
Found: 5.33 h

Lookup: Indicate its recorded total protein half-life in vivo; the sequence in question is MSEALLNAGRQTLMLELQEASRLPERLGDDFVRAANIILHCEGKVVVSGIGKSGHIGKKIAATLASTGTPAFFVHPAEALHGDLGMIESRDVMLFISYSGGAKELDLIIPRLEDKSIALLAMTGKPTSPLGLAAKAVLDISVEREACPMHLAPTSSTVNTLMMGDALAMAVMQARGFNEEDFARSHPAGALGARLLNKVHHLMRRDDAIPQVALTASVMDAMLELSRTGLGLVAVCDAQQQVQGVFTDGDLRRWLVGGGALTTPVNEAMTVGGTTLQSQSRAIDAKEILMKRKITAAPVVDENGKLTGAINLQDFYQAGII
Found: 4.55 h
